relative viability: recorded values
test system: NCI-H647; assay: relative viability (nuclei count vs DMSO), 5 days (fraction); higher = more cells survive; settings: first compound 4 µM

Consider the reported relative viability for these compounds:
# Compound, relative viability
records = [
    ("Clc1ccc(Nc2nnc(Cc3ccncc3)c3ccccc23)cc1 [Vatalanib] + Cc1nc(Nc2ncc(C(=O)Nc3c(C)cccc3Cl)s2)cc(N2CCN(CCO)CC2)n1 [Dasatinib] (partner 0.075 µM)", 0.148),
    ("Clc1ccc(Nc2nnc(Cc3ccncc3)c3ccccc23)cc1 [Vatalanib] + C[C@]1(O)C[C@@H](c2nc(-c3ccc4ccc(-c5ccccc5)nc4c3)c3c(N)nccn32)C1 [Linsitinib] (partner 1 µM)", 1.09),
    ("Clc1ccc(Nc2nnc(Cc3ccncc3)c3ccccc23)cc1 [Vatalanib] + O=C(c1cc(Cc2n[nH]c(=O)c3ccccc23)ccc1F)N1CCN(C(=O)C2CC2)CC1 [Olaparib] (partner 8 µM)", 0.531),
]

The record that follows has no relative viability shown yet.
relative viability recorded for this compound, COc1cc(N2CCC(C(N)=O)CC2)ccc1Nc1nc(N)c(Cl)c(Nc2ccccc2S(=O)(=O)C(C)C)n1 [HG-5-88-01] + CC(=O)Nc1cccc(-n2c(=O)n(C3CC3)c(=O)c3c(Nc4ccc(I)cc4F)n(C)c(=O)c(C)c32)c1 [Trametinib] (partner 0.02 µM) , is 0.527
